Biological target: T1, cynomolgus monkey IL-21R expressed on cells (cynomolgus monkey, UniProt G7Q0S8 41-559)
T1 construct: whole, on cells
Assay: cell ELISA, CHO cells
recorded-metric: A450 (13 nM Ab) (A450)
Give bare numbers, in A450.

Sample answers from the record:
| binder | output-unit | quantitative-result |
| --- | --- | --- |
| AbE (antibody, IgG1, V domains shown, As for AbA: IgG1/lambda, CDR3 graft, residue limits derived; also called VHP/VL14) VH: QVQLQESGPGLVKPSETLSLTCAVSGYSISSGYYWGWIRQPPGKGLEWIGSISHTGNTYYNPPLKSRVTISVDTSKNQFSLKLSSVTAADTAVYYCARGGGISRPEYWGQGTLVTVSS VL: SSELTQDPAVSVALGQTVRITCQGDSLRTYYASWYQQKPGQAPVLVIYGKHKRPSGIPDRFSGSSSGNTASLTITGAQAEDEADYYCMARSRKGNPHVLFGGGTQLTVL | A450 | 1.42 |
| AbC (antibody, IgG1, V domains shown, As for AbA: IgG1/lambda, CDR3 graft, residue limits derived; also called VHP/VL11) VH: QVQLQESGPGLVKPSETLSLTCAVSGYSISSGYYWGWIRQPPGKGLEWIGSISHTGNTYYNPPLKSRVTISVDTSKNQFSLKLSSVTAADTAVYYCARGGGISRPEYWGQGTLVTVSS VL: SSELTQDPAVSVALGQTVRITCQGDSLRTYYASWYQQKPGQAPVLVIYGKHKRPSGIPDRFSGSSSGNTASLTITGAQAEDEADYYCSSRSRHGNPHVLFGGGTQLTVL | A450 | 1.28 |
| AbN (antibody, IgG1, V domains shown, As for AbA: IgG1/lambda, CDR3 graft, residue limits derived; also called VH6/VL24) VH: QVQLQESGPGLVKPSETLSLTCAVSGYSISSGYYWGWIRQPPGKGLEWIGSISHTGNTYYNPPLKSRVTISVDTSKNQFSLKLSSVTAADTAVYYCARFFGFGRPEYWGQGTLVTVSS VL: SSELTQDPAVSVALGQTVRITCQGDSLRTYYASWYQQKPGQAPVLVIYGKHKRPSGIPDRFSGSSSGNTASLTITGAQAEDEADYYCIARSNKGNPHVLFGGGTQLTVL | A450 | 1.5 |
| AbU (antibody, human IgG1, V domains shown, CDR3 graft, residue limits derived as for m29; also called VHP/VL25; VHPTM/VL25) VH: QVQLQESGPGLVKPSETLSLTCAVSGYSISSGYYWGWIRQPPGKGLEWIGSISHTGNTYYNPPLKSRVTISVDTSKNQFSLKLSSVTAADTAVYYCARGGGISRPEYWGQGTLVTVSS VL: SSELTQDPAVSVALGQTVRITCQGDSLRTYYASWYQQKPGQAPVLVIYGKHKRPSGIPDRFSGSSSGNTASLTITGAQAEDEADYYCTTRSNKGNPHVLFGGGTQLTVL | A450 | 1.31 |

Here is another binder to look at.
Looking up AbB (antibody, IgG1, V domains shown, As for AbA: IgG1/lambda, CDR3 graft, residue limits derived; also called VHP/VL3) VH: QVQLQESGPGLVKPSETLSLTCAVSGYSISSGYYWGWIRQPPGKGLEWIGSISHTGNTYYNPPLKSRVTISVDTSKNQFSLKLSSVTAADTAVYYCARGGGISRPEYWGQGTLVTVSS VL: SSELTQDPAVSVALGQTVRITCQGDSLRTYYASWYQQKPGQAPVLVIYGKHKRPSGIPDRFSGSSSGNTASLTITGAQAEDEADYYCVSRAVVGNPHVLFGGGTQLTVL , I see its A450 (13 nM Ab) listed as 1.33
